Source listed as the Human Domainome abundance scans (Beltran et al. 2025).

B1: POU domain, class 3, transcription factor 2, residues 356 to 411; numbered along this chain, P20265 (parent)
chain: KKRTSIEVSVKGALESHFLKCPKPSAQEITSLADSLQLEKEVVRVWFCNRRQKEKR

variants of: B1; assay: abundance fitness (aPCA) (normalised: wild type 0, dead -1); higher = more abundant; growth selection in yeast, the domain comes from the species named; details: Homo sapiens
Listing of entries alongside the reported abundance fitness.
experimental_readout: abundance fitness

{"residue_change": "R44L", "measurement": -0.407}
{"residue_change": "W46F", "measurement": -0.393}
{"residue_change": "R50E", "measurement": -0.398}
{"residue_change": "R51W", "measurement": -0.1}
